src = ChEMBL document CHEMBL2311394

Each entry below carries its measured pKi, system: Glutamate receptor ionotropic, kainate 2 (Rattus norvegicus, UniProt P42260).
Sequence (P42260 whole entry): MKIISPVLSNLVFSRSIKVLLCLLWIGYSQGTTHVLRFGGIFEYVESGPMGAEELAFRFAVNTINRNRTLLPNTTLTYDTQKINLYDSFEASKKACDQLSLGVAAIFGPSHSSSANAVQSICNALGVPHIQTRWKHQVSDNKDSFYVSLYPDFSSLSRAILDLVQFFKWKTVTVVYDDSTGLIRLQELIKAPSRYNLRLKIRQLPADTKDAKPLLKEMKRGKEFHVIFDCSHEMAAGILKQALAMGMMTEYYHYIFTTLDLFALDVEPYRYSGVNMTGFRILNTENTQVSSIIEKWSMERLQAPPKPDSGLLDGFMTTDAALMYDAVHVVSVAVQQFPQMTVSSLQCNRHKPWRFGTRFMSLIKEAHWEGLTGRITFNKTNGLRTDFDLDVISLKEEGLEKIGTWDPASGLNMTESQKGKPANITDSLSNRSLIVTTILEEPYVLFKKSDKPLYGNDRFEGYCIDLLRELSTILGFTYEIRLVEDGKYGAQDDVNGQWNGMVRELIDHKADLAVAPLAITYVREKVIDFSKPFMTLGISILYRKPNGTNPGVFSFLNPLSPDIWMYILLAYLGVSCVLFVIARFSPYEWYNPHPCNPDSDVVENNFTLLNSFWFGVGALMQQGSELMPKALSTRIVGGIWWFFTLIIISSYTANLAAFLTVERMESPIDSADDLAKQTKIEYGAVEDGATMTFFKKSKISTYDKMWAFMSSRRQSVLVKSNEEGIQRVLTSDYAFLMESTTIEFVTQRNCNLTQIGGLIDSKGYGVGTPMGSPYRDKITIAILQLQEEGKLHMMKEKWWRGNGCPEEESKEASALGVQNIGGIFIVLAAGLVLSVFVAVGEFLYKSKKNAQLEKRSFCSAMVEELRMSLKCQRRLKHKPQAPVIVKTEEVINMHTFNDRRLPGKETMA
Schema: pKi number; meaning minus log10 of the concentration expressed in molar units.

Use the examples below as a reference point.
> print(dat)
                           substance.smiles  quantitative.result
1          NCCC[C@H](C[C@H](N)C(=O)O)C(=O)O                 4.08
2  N[C@@H](C[C@@H](CCC(=O)N1CCCCC1)C(=O)O)C(=O)O                 4.51
3  N[C@@H](C[C@@H](CCC(=O)Nc1ccccc1)C(=O)O)C(=O)O                 4.46

## Input Kindly state the measured pKi obtained for O=C(O)[C@@H]1CCCN[C@H](C(=O)O)C1 with Glutamate receptor ionotropic, kainate 2 (Rattus norvegicus, UniProt P42260).
## Output 4.66
